- Tested on: Mycobacterium tuberculosis
- assayMethodText: Displacement of UDP-fluorescein from non-reduced form of Mycobacterium tuberculosis UDP-galactopyranose mutase by fluorescence polarization assay relative to control
- Design: concentration or dose not given beside the values
- conditionSet: concentration not given here
Reported inhibition values are given for each entry in this list.
The reply should contain only the number, in %.

Past entries and their recorded results:
1. O=C1O/C(=C(/I)c2ccccc2)Cn2c1c(I)c1ccccc12 22.8
2. O=C1O/C(=C/I)Cn2c1c(I)c1cc(F)ccc12 19.1
3. CC1=C(c2ccc(-c3ccccc3)cc2)C(=O)O/C1=C\C(C)C 19.2
4. O=C1O/C(=C/I)Cn2c1c(I)c1ccccc12 61.6
5. C#CCn1c(C(=O)O)c(I)c2cc3c(cc21)OCO3 46.2

Bench note, Mycobacterium tuberculosis: entry C#CCn1c(C(=O)O)c(I)c2ccccc21 , its inhibition = 7.4

Bench note, Mycobacterium tuberculosis: entry CC1=C(Br)C(=O)O/C1=C\C(C)C , its inhibition = 7.3

Bench note, Mycobacterium tuberculosis: entry COc1ccc2cc(C3=C(C)/C(=C/C(C)C)OC3=O)ccc2c1 , its inhibition = 7.4
